assay: Solubility (Solubilités) in water and dimethyl sulfoxide; assay type: physicochemical; settings: water; eau; read-out: Solubilités : Soluble dans l'eau
observation_type: solubility (mg/mL)

Qu. State the recorded solubility for this entry: CC(C)(C)NCC(O)COCCCc1ccccc1 (stereo not drawn)
Ans. 100

(1) CC(C)(C)NCC(O)COC1Cc2ccccc2C1 (stereo not drawn)
(2) CC(C)NCC(O)COCc1cccc2ccccc12 (stereo not drawn)
(3) Cc1cccc(COCC(O)CNC(C)(C)C)c1 (stereo not drawn)
(4) CC(C)(C)NCC(O)COCc1cccc(OCc2ccccc2)c1 (stereo not drawn)
Qu. Reorder the items by solubility, least to greatest. Would you mind listing the labels in the order requested?
Ans. 4, 2, 3, 1
(4: 2 mg/mL, 2: 14 mg/mL, 3: 25 mg/mL, 1: 100 mg/mL)
